experiment: chemical genetic growth profiling, strain panel (AID 1159580);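 also: tested at 20 µM; growth read once vehicle control cultures reached saturation at 30 °C; 1 = growth at the plate median or of vehicle wells; lower values mean less growth of the strain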
experimental-conditions: S. cerevisiae deletion strains, growth OD, locus YOL136C, strain PFK27, active compounds read low
The campaign covered roughly 5,500 compounds. About 2,000 (36%) were called active. Not shown: some 18% with an inconclusive outcome. This is one part of the list.
endpoint-name: normalized growth

{"columns": ["compound", "recorded-number"],
 "data": [
  ["Cc1nc(-c2ccccn2)nc(N(C)Cc2ccccc2)c1Cl", 0.963],
  ["CC(C)Cc1ccc(C(C)C(=O)Nc2nn(C)c3ccccc23)cc1 (stereo unspecified)", 0.916],
  ["O=C(c1cccs1)N(Cc1cccnc1)Cc1ccc(Cl)cc1Cl", 0.906],
  ["O=C(NCCNc1ncc(C(F)(F)F)cc1Cl)C(F)(F)Sc1ccccc1", 0.893],
  ["O=[N+]([O-])c1ccc(S(=O)(=O)c2ccccc2)nc1S(=O)(=O)c1ccccc1", 0.533],
  ["Cc1csc(NC(=O)Nc2ccc(C(F)(F)F)cc2)c1Cl", 0.801],
  ["O=C(Nc1ccc(Cl)cc1)SCc1c(Cl)cccc1Cl", 0.761],
  ["Clc1ccc2c(c1)c1ccccc1n2CN1CCOCC1", 0.72],
  ["CC(C)(C)C(=O)N(Cc1cccnc1)Cc1ccc(Cl)cc1Cl", 0.919],
  ["Fc1ccc(NC(=S)N2CCCN(Cc3ccc(Cl)cc3Cl)CC2)cc1", 1.01],
  ["Cc1csc(NC(=O)Nc2ccc(C(F)(F)F)cc2)c1", 0.739]
]}

Where do the numbers come from? From PubChem BioAssay AID1159580.
